Origin of measurements: paper PMC10174255

test: MTT cytotoxicity assay; settings: African green monkey
Catalogue of CC50 values

{"compound": "Oc1ccc(/C=C/c2cc(O)cc(O)c2)cc1 [Resveratrol]", "CC50 (µM)": 40.9}
{"compound": "C[C@H](N[C@@H](CCc1ccccc1)C(=O)O)C(=O)N1CCC[C@H]1C(=O)O [Enalaprilat]", "CC50 (µM)": 83}
{"compound": "CC(C)Cn1c(=O)n(C)c(=O)c2[nH]cnc21 [3-isobutyl 1-methylxanthine]", "CC50 (µM)": 177}
{"compound": "COc1cccc2c1C(=O)c1c(O)c3c(c(O)c1C2=O)C[C@@](O)(C(=O)CO)C[C@@H]3O[C@H]1C[C@H](N)[C@H](O)[C@H](C)O1 [Doxorubicin]", "CC50 (µM)": 117}

###

test system: CHIKV; test: Antiviral assay (pre-, co-, posttreatment) with FFU readout; settings: pretreatment, FFU, Vero CCL-81
pIC50: −log10 of the molar value.
Catalogue of pIC50 values

{"compound": "COc1cccc2c1C(=O)c1c(O)c3c(c(O)c1C2=O)C[C@@](O)(C(=O)CO)C[C@@H]3O[C@H]1C[C@H](N)[C@H](O)[C@H](C)O1 [Doxorubicin]", "pIC50": 5.16}
{"compound": "O=C(O)Cc1ccc(-c2ccccc2)cc1 [Felbinac]", "pIC50": 6.62}
{"compound": "CO[C@H]1C[C@@H]2CC[C@@H](C)[C@@](O)(O2)C(=O)C(=O)N2CCCC[C@H]2C(=O)O[C@H]([C@H](C)C[C@@H]2CC[C@@H](OC(=O)C(C)(CO)CO)[C@H](OC)C2)CC(=O)[C@H](C)/C=C(\\C)[C@@H](O)[C@@H](OC)C(=O)[C@H](C)C[C@H](C)/C=C/C=C/C=C/1C [Temsirolimus]", "pIC50": 5.31}
{"compound": "CC(C)(C(=O)c1cccnc1)c1cccnc1 [Metyrapone]", "pIC50": 4.91}
{"compound": "Nc1nc(F)nc2nc[nH]c12 [2-Fluoroadenine]", "pIC50": 5.02}
